system: pseudotyped HIV-1; experiment: microbe, parasite or virus in culture; format: cell-based, human immunodeficiency virus (HIV)-1; details: Human immunodeficiency virus 1, THP-1, 72 h, read-out: EC50 HIV-1
Field: pEC50. Provide a value for each of the compounds that follow.
The scale used: pEC50 is minus the common logarithm of the concentration in molar units.

Q: Look up pEC50: COc1ccc(CN(C)CCc2ccc(O)cc2)cc1O
Result: 3.91

Q: Give its pEC50 value. Item: Oc1ccc(CCNCc2ccc(O)c(O)c2)cc1
Result: 4.17

Q: Fill in: pEC50 of COc1cc(CNCCc2ccc(O)cc2)ccc1O is ___
Result: 3.75

Q: # input compound: COc1ccc(CNCCc2ccc(O)cc2)cc1OC ; wanted: its pEC50
Result: 3.72

Q: // lookup pEC50 for COc1ccc(CNCCc2ccc(O)cc2)cc1O
Result: 3.79

Q: Reported pEC50, compound CN(CCc1ccc(O)cc1)Cc1ccc(O)c(O)c1 : ____
Result: 4.37

---

assay: Cytotoxicity assay (Cell-Titer GLO, ATP levels, 72 h); type: cell-based; conditions: human; HCT-8 cells, 72 h treatment, 4–500 µM
VALUE TYPE: CC50 at 72 h

Q: State the recorded CC50 at 72 h for this entry: COc1ccc(CNCCc2ccc(O)cc2)cc1O [4′-O-methylnorbelladine]
Result: > 500 µM

Q: Quick one: CC50 at 72 h for COc1ccc(CNCCc2ccc(O)cc2)cc1OC [3′,4′-O-dimethylnorbelladine] ?
Result: > 500 µM

Q: Would you mind telling me what CC50 at 72 h value was observed for CN(CCc1ccc(O)cc1)Cc1ccc(O)c(O)c1 [N-methylnorbelladine] ?
Result: > 500 µM

Q: What measured CC50 at 72 h goes with Oc1ccc(CCNCc2ccc(O)c(O)c2)cc1 [Norbelladine] ?
Result: > 500 µM

Q: Can you share its CC50 at 72 h? I mean this compound: COc1cc(CNCCc2ccc(O)cc2)ccc1O [3′-O-methylnorbelladine]
Result: > 500 µM

Q: Could you tell me which CC50 at 72 h is on file for COc1ccc(CN(C)CCc2ccc(O)cc2)cc1O [4′-O,N-dimethylnorbelladine] ?
Result: > 500 µM

---

Assay: Cytotoxicity assay (Cell-Titer GLO, ATP levels, 72 h)
Assay type: cell-based, human
Details: human, THP-1 cells, 72 h treatment, 4–500 µM
Experimental: The human hepatocarcinoma Huh7 cell line (CVCL_0336) was maintained in Dulbecco’s Modified Eagle Medium (DMEM) supplemented with 10% fetal bovine serum (FBS) and 1% penicillin/streptomycin solution (PS, from GIBCO, Fisher Scientific, Toronto, ON, Canada). […] In total, 10 × 10^3 Huh7 cells/well, or 5 × 10^4 THP-1 or HCT-8 cells/well were plated in 96-well plates and incubated at 37 °C and 5% CO2. […] The luminescence signal was measured with a microplate reader (Synergy H1, Biotek, Dorval, QC, Canada). […]
VALUE TYPE: CC50 at 72 h

Q: Quick one: CC50 at 72 h for CN(CCc1ccc(O)cc1)Cc1ccc(O)c(O)c1 ?
Result: 227 µM

Q: # get_value(readout='CC50 at 72 h', item= Oc1ccc(CCNCc2ccc(O)c(O)c2)cc1 )
Result: 148 µM

Q: Which CC50 at 72 h value belongs to COc1ccc(CNCCc2ccc(O)cc2)cc1O ?
Result: > 500 µM

Q: I'd like to know its CC50 at 72 h. The compound in question is COc1ccc(CNCCc2ccc(O)cc2)cc1OC
Result: > 500 µM

Q: Name the reported CC50 at 72 h value associated with the compound COc1cc(CNCCc2ccc(O)cc2)ccc1O
Result: > 500 µM

Q: Which CC50 at 72 h value belongs to COc1ccc(CN(C)CCc2ccc(O)cc2)cc1O ?
Result: > 500 µM
